# assayDetails: chemical genetic growth profiling, strain panel (AID 1159580);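 note: tested at 20 µM; growth read once vehicle control cultures reached saturation at 30 °C; 1 = growth at the plate median or of vehicle wells; lower values mean less growth of the strain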
# assaySetup: S. cerevisiae deletion strains, growth OD, locus YEL061C, strain CIN8 (second series), stronger effect = lower value
In all, about 5,500 compounds went through this assay and about 2,000 (36%) were called active. About 18% were inconclusive and are not listed. The list shows a part of the results.
Kindly state normalized growth for each of the entries shown.
One number for each entry.

C[C@@H]1CC(Cl)CC[C@H]1C(=O)OC(C)(C)C (some centres not stated) : 0.984

List normalized growth for every entry below, keeping the order given.
1. Cc1ccc(S(=O)(=O)NC(=O)NN2CCCCCC2)cc1
2. COc1ccc2c(c1)OC1(O)COc3cc(OC)c(OC)cc3C1=C2 (configuration not stated)
3. COc1cc([C@@H]2c3cc4c(cc3[C@@H](O)C3COC(=O)C32)OCO4)cc(OC)c1O (some centres not stated)
4. O=C(c1ccc(OCCN2CCCCC2)cc1)c1c(-c2ccc(O)cc2)sc2cc(O)ccc12
5. N=c1ccn2c(n1)OC1C(O)C(CO)OC12 (configuration not stated)
6. Cc1[nH]c2ccccc2c1CN(C)C
7. COc1ccc(C(c2ccc(OC)cc2)C(Cl)(Cl)Cl)cc1

Response:
1: 1; 2: 0.978; 3: 0.991; 4: 1.03; 5: 1.01; 6: 1.03; 7: 1.01
